Values were extracted from patent US20210171624A1.

- TARGET: T1, recombinant human IFN-γ protein (human, UniProt P01579 24-166, limits assumed)
- T1 sequence: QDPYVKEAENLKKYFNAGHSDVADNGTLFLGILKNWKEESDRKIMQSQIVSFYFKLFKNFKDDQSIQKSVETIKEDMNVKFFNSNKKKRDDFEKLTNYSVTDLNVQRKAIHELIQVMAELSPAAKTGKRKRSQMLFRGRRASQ
- PROTOCOL: cell-based or functional assay
Record form. Attribute: IC90, inhibition of IFN-γ induced HLA-DR expression on THP-1 cells. Fill in for each entry.
Numbers only, in µg/mL.

Answered examples (2):
Please give the measured IC90, inhibition of IFN-γ induced HLA-DR expression on THP-1 cells for this binder: antibody 2B6 (antibody, human IgG1, V domains shown, Human IgG1 lambda) VH: EVQLVESGGGLVKPGGSLRLSCAASGFPFSRYSMHWVRQAPGKGLEWVSSMTSRTNHKYYADSLKGRFLISRDNDRDSLYLEMNSLGVEDTAIYFCARGYDTSGSDSGVDFQYWGQGTLVTVSS VL: NFMLTQPHSVSESPGKTITISCTRGRGYIASYYVQWYQQRPGGVPKIVVFEDTQRPSGVPDRISGSIDTSTNSASLTISGLQTEDEADYYCQSYDDANHVIFGGGTKLTVL 1.02

Please give the measured IC90, inhibition of IFN-γ induced HLA-DR expression on THP-1 cells for this binder: antibody 2F2 (antibody, human IgG1, V domains shown, Human IgG1 lambda) VH: EVQLVESGGGLVKPGESLRLACVASGFNFSDYYMTWIRQAPGKGLEWVSYISNSGSHTYYADAVKGRFTVSRDNAKNSLYLQMTSLRGEDTAIYFCARDPSIMRGTYYMDVWGKGTTVTVSS VL: QSVLTQPPSASGTPGQRVTISCSGSSSNIGTNPVSWYQQFPGMAPKLLIYFNNQRPSGVPERFSGSKSGTPASLAIGGLQSEDEANYYCASWDDTLNGLVFGGGTKLTVL 0.508

# batch: return IC90, inhibition of IFN-γ induced HLA-DR expression on THP-1 cells for each of the 2 binders below
1. antibody 2A6 (antibody, human IgG1, V domains shown, partial N-linked glycosylation at Asn-76 of the VH, Human antibody from a single B cell, cloned into human IgG1 lambda expression vectors and made in FreeStyle 293-F cells) VH: EVQLVESGGGLVKPGDSLTVSCVASGFTFSNYFIHWVRQAPGKGLEWVATISGRTKYMFYSDSLRGRFTVSRDNANNSVYLHMSSLRGEDTALYYCVRGYDHSDSNSAADLLHWGRGTLVTVSS VL: NFMLTQPLSVSGYPGKTIVISCVRSSGSVASHYVQWFQQRPGSAPAMVIYEDSHRPSGIPDRFSGSVDASSNSASLTISGLKTEDEADYFCQSYYGNNQVLFGGGTKLTVL
2. antibody 1E8 (antibody, human IgG1, V domains shown, Human IgG1 lambda) VH: EVQLLESGGGLVQPGGPLRLSCAASGFTFSIYSMNWVRQAPGKGLEWVSSISGSGDNTYYADSVKGRFTITRDSSKNTLYLQMNTLRAEDTAVYFCAKSGRNIISPGFDSWGQGTLVTVSS VL: QPVLTQPPSASASLGASVTLTCTLNSDYGDYKVDWYQQRPGKGPRFVMRVGTGGIVGSKGDGIPDRFSVLGSGLNRFLTIKNIQEEDESDYYCGADHGSANNFIWVFGGGTKLTVL

[3.85, 0.0486]
